test system: L1210 leukemia ip in BDF1 mice, survival T/C; assay: NCI In Vivo Anticancer Drug Screen. Data for tumor model L1210 Leukemia (intraperitoneal) in B6D2F1 (BDF1) mice; conditions: endpoint: mean survival time; dose: 100.0 mg/kg/injection; schedule: Q04DX003 (ip); vehicle: saline with Tween-80; higher = longer survival
Toxic doses and inconclusive results are not listed.
property: T/C

Exercise: Entry under review: `CCn1c(CC(O)(C(F)(F)F)C(F)(F)F)nc2ccccc21` . Reported T/C?
Key: 101 % of control

Exercise: State the recorded T/C for this entry: COC(CCC#N)c1ccccc1 (stereo unspecified)
Key: 105 % of control

Exercise: # input molecule: `CCOC(=O)CCSC` ; wanted: its T/C
Key: 93 % of control

Exercise: Which T/C is reported for this molecule? COc1ccc2c(c1)OC(C)(C)C(c1ccccc1)C2c1ccc(OCCN2CCCC2)cc1 (stereo unspecified)
Key: 119 % of control

Exercise: Report T/C for `O=C(NO)Nc1ccccc1` please.
Key: 95 % of control

Exercise: For the molecule shown here, N#CC1(C#N)C2C=CC(C3CC=CC32)C1(C#N)C#N (stereo unspecified) , give the reported T/C.
Key: 93 % of control

Exercise: Recorded T/C of `CC(=O)CC(=O)NC1CCCCC1` , please.
Key: 96 % of control

Exercise: // returns reported T/C for input `Sc1ccccc1`
Key: 92 % of control

Exercise: Tell me the measured T/C of CSc1ccc(NC(=O)OCC2CC3C=CC2C3)cc1 (stereo unspecified) , please.
Key: 95 % of control

Exercise: Any idea what its T/C is? The molecule is `COc1cccc(C[Si](C)C)c1`
Key: 104 % of control

Exercise: Item under review: `CCO/C=C(\C#N)C(=O)O` . Reported T/C?
Key: 98 % of control

Exercise: Requested field: T/C. Item: `O=C(O)/C(=C\c1ccncc1)c1cccc2ccccc12`
Key: 100 % of control

Exercise: Report T/C for Cc1ccc(S(=O)(=O)OCC2OCC(O)C(O)C2O)cc1 (stereo unspecified) please.
Key: 86 % of control

Exercise: Looking for the measured T/C of `CCCCOC(=O)CCC(C)=O` , can you help?
Key: 109 % of control

Exercise: Would you mind telling me what T/C value was observed for `COc1cc(C)c(NC(=O)Oc2ccccc2)c(C)c1` ?
Key: 89 % of control

Exercise: Which value of T/C has been reported for `CCCCCCCCCCCCCCCSc1ccc(Br)cc1` in the records?
Key: 97 % of control

###

test system: L1210 leukemia ip in BDF1 mice, survival T/C; experiment: NCI In Vivo Anticancer Drug Screen. Data for tumor model L1210 Leukemia (intraperitoneal) in B6D2F1 (BDF1) mice; settings: endpoint: mean survival time; dose: 400.0 mg/kg/injection; schedule: Q04DX002 (ip); vehicle: saline with Tween-80; higher = longer survival
Toxic doses and inconclusive results are not listed.
Hi there, I'd appreciate the recorded T/C for every entry that follows.

Exercise: Item O=C(O)C(O)(c1ccccc1)C1CCCCC1 (stereo not given) has what recorded T/C?
Key: 98 % of control

Exercise: Data request, read-out T/C, for `CCc1ccc2c(-c3ccccc3)ccc3c2c1C(=O)c1ccccc1-3`
Key: 91 % of control

Exercise: Report T/C for CC(C)P(=O)(CC(=O)O)c1ccccc1 (stereo not given) please.
Key: 97 % of control

Exercise: # lookup: T/C of `O=C1/C(=C\c2ccccc2)N2CCC1CC2`
Key: 87 % of control

Exercise: Form field: reported T/C of `C/C(=N/NC(=O)CC#N)c1ccccc1`
Key: 95 % of control

###

tested on: L1210 leukemia ip in BDF1 mice, survival T/C; assay: NCI In Vivo Anticancer Drug Screen. Data for tumor model L1210 Leukemia (intraperitoneal) in B6D2F1 (BDF1) mice; conditions: endpoint: mean survival time; dose: 200.0 mg/kg/injection; schedule: Q04DX003 (ip); vehicle: saline with Tween-80; higher = longer survival
Inconclusive results and toxic doses are left out.
property: T/C

Exercise: Test system L1210 leukemia ip in BDF1 mice, survival T/C; read-out T/C; what value for `NNC(=O)CCc1ccccc1Br` ?
Key: 92 % of control

Exercise: Record `C=CCc1ccc(OC(=O)Nc2ccc(SC)cc2)c(OC)c1` : what is its T/C with L1210 leukemia ip in BDF1 mice, survival T/C?
Key: 91 % of control

Exercise: Find T/C (L1210 leukemia ip in BDF1 mice, survival T/C) for the entry `[N-]=[N+]=NS(=O)(=O)CCc1ccccc1`
Key: 110 % of control

Exercise: # query: T/C | item CCOC(CN=CC1CCC=CO1)OCC (stereo unspecified) | system: L1210 leukemia ip in BDF1 mice, survival T/C
Key: 96 % of control

Exercise: Hello, I am looking for reported T/C with L1210 leukemia ip in BDF1 mice, survival T/C for CC1(O)C=Cc2ccccc21 (stereo unspecified) . Could you help?
Key: 95 % of control

Exercise: What reported T/C corresponds to `Cc1ncc(CO)c(/C=N/OCc2ccc(OCc3ccccc3)cc2)c1O` on L1210 leukemia ip in BDF1 mice, survival T/C?
Key: 100 % of control

Exercise: Return T/C measured with L1210 leukemia ip in BDF1 mice, survival T/C given this compound: NC(=O)C1C2C=CC(CC2)C1C(N)=O (stereo unspecified)
Key: 96 % of control

Exercise: What value of T/C on L1210 leukemia ip in BDF1 mice, survival T/C does `CC(=O)Oc1c2cccc3c(=O)c4cccc5c4-c(c23)c2c1cccc2c5=O` have?
Key: 95 % of control

Exercise: Kindly state the measured T/C obtained for O/N=C(\c1ccccc1)C(c1ccccc1)C(Cl)(Cl)Cl (stereo unspecified) with L1210 leukemia ip in BDF1 mice, survival T/C.
Key: 88 % of control

Exercise: Give recorded T/C with L1210 leukemia ip in BDF1 mice, survival T/C for the following compound: `CNC/C(C)=C/Br`
Key: 97 % of control

Exercise: Quick check: T/C on L1210 leukemia ip in BDF1 mice, survival T/C, item `COC(=O)c1cc(C(C)=O)nc2ccccc12` ?
Key: 99 % of control

###

tested on: L1210 leukemia ip in BDF1 mice, survival T/C; assay: NCI In Vivo Anticancer Drug Screen. Data for tumor model L1210 Leukemia (intraperitoneal) in B6D2F1 (BDF1) mice; settings: endpoint: mean survival time; dose: 200.0 mg/kg/injection; schedule: Q04DX003 (ip); vehicle: saline with Tween-80; higher = longer survival
Toxic doses and inconclusive results are not listed.
For each entry below, report its T/C value.

Exercise: Suppose we examine the compound `CC(=O)N(C)c1ccc(NC2=NCCO2)cc1` ; what T/C value has been reported?
Key: 101 % of control

Exercise: Please look up its T/C: `COc1ccc(CCNC(=O)/C=C\C(=O)O)cc1OC`
Key: 98 % of control

Exercise: Quick check: T/C of O=S1(=O)CCCC1C(O)(c1ccccc1)c1ccccc1 (configuration not stated) ?
Key: 92 % of control

Exercise: Any idea what T/C was measured for `O=C(Nc1ncccn1)c1ccc(Cl)cc1Cl` ?
Key: 91 % of control

Exercise: Which T/C is reported for this compound? `COc1cc(OC)c(C(=O)c2ccccc2N)c(OC)c1`
Key: 87 % of control

Exercise: Look up T/C for this compound: `COc1ccc(-c2cnc3c(N)nn(C)c3n2)cc1`
Key: 100 % of control

Exercise: Which T/C is listed for `C=CCOc1ccccn1` ?
Key: 102 % of control

###

tested on: L1210 leukemia ip in BDF1 mice, survival T/C; experiment: NCI In Vivo Anticancer Drug Screen. Data for tumor model L1210 Leukemia (intraperitoneal) in B6D2F1 (BDF1) mice; details: endpoint: mean survival time; dose: 400.0 mg/kg/injection; schedule: Q01DX001 (ip); vehicle: saline; higher = longer survival
Toxic doses and inconclusive results are not listed.
For each record, write down the corresponding T/C.

Exercise: # query: T/C of entry `Nc1nc(N)c(N=Nc2ccccc2S(=O)(=O)O)c(=O)[nH]1`
Key: 104 % of control

Exercise: Would you mind telling me what T/C value was observed for `OC12CC3CC(CC(C3)C1)C2` ?
Key: 103 % of control

Exercise: Quick one: T/C of `Cc1ccccc1N1CCN(c2c3c(nc4ccccc24)CCCCC3)CC1` ?
Key: 93 % of control

Exercise: Given the compound `CN1CCC(=O)N1` , what is its reported T/C?
Key: 98 % of control

Exercise: If you can, please state the reported T/C value of COC1C(COC(C)=O)OC(n2cnc3c(=O)[nH]cnc32)C1OC(C)=O (stereo not drawn) .
Key: 103 % of control

Exercise: For the compound O=C(CC1CCCCC1O)Nc1ccccc1 (stereo not drawn) , what T/C is on record?
Key: 97 % of control

Exercise: Looking for the measured T/C of `CC1(C)CNC(=O)O1` , can you help?
Key: 100 % of control

Exercise: Given the entry `O=c1c(=NNc2ccccc2)c(=O)c2ccccc12` , report its measured T/C.
Key: 102 % of control

Exercise: Can you share its T/C? I mean this compound: `OCc1ccc(O)cn1`
Key: 94 % of control

Exercise: Looking for the measured T/C of `CCCCCCCCCCCCc1c2ccccc2cc2ccccc12` , can you help?
Key: 92 % of control

Exercise: Which T/C reading was recorded for the compound CC(=O)OCC(OC(C)=O)C(OC(C)=O)C(Cn1c(=O)cc(C)c2ccc(C)c(C)c21)OC(C)=O (stereo not drawn) ?
Key: 88 % of control

Exercise: Requested read-out: T/C. Entry: CC(O)C(O)C(=O)O (stereo not drawn)
Key: 96 % of control

Exercise: # query: T/C of entry O=C(NC1CCC(C(=O)O)CC1)OCc1ccccc1 (stereo not drawn)
Key: 98 % of control

Exercise: Which value of T/C has been reported for Cc1ccc(S(C)=O)cc1 (stereo not drawn) in the records?
Key: 95 % of control

Exercise: Look up T/C for this compound: `Cc1coc(NS(=O)(=O)c2ccc(N=Nc3c(N)nc(N)[nH]c3=O)cc2)c1C`
Key: 105 % of control

Exercise: Given the entry `Cn1nc(SCc2ccccc2)c(N)nc1=O` , report its measured T/C.
Key: 101 % of control

Exercise: Which T/C value belongs to CCC(C(=O)OC)C(=O)c1ccccc1 (stereo not drawn) ?
Key: 96 % of control

Exercise: Please report the recorded T/C for `Cc1cccc(=O)n1Cc1ccccc1` .
Key: 105 % of control

Exercise: Fill blank: measured T/C of the compound `CCCCC(=O)N/N=C\c1ccc2c(c1)OCO2` is ____.
Key: 91 % of control

Exercise: Consider the compound shown here: CCC(C)(C1CCC(O)CC1)C1CCC(O)CC1 (stereo not drawn) What is its recorded T/C?
Key: 98 % of control

Exercise: Item CNNC(=O)C(O)C(C)(C)CO (stereo not drawn) has what recorded T/C?
Key: 102 % of control

Exercise: Fill in the blank: the reported T/C of `CCOC(=O)c1cc(N(CCOS(C)(=O)=O)CCOS(C)(=O)=O)ccc1[N+](=O)[O-]` is ____.
Key: 97 % of control

Exercise: Sample `CC(=O)OCC1(C[N+](C)(C)C)CC1` — what was its T/C?
Key: 105 % of control
